Form: system (SARS-CoV-2 3CLpro (Severe acute respiratory syndrome coronavirus 2, UniProt P0DTD1)), quantity (IC50), values below.

As a guide, the following entries are already answered.
# Smiles Repr, Readout Label, Recorded Value
rows = [
    ("CN(C)C(=O)c1cc(Cl)cc([N+](=O)[O-])c1N[C@H]1CN(C(=O)c2cncc3ccccc23)CC[C@@H]1F", "IC50", "< 0.1 µM"),
    ("COC1CN(C(=O)c2cc(Br)cc(C(F)(F)F)c2N[C@H]2CN(C(=O)c3cncc4ccccc34)CCC2(F)F)C1", "IC50", "< 0.1 µM"),
    ("O=C(N[C@@H]1CCOC1)c1cc(Cl)cc([N+](=O)[O-])c1N[C@H]1CN(C(=O)c2cncc3ccccc23)CCC1(F)F", "IC50", "< 0.1 µM"),
]

Please examine the following record next.
IC50 value, target or system SARS-CoV-2 3CLpro (Severe acute respiratory syndrome coronavirus 2, UniProt P0DTD1), for "CNC(=O)c1cc(Br)cc(S(C)(=O)=O)c1N[C@@H]1CCCC[C@@H]1NC(=O)c1cncc2ccccc12" : ≥ 10 µM
